Collected relative % inhibition values appear next to each entry.
tested on: P. falciparum NF54-pfs16-GFP early (I-III) stage gametocytes; assay: relative % inhibition of viable gametocyte number; higher = more gametocytocidal; conditions: 5 µM; stage: early (I-III) gametocyte; incubation 72 h

MOLECULE	EXPERIMENTAL TARGET	relative % inhibition (%)
CCOC(=O)c1c(C)n(-c2ccc(Cl)cc2)c2ccc(OC(=O)C=Cc3ccccc3)cc12	P. falciparum NF54-pfs16-GFP early (I-III) stage gametocytes	26.8
Cc1ccc(Nc2nc(-c3ccccn3)cs2)cc1	P. falciparum NF54-pfs16-GFP early (I-III) stage gametocytes	93.5
CCOC(=O)c1cnc2c(C)cc(C)cc2c1Nc1ccc(OC)c(OC)c1	P. falciparum NF54-pfs16-GFP early (I-III) stage gametocytes	7.56
CC(C)CNC(=O)c1c(N)n(CCc2ccccc2F)c2nc3ccccc3nc12	P. falciparum NF54-pfs16-GFP early (I-III) stage gametocytes	3.8
COc1ccc(CCN2C(=O)c3[nH]nc(-c4cc(Cl)c(C)cc4O)c3C2c2ccccc2F)cc1 (stereo not given)	P. falciparum NF54-pfs16-GFP early (I-III) stage gametocytes	-0.844

---

system: P. falciparum NF54-pfs16-GFP late (IV-V) stage gametocytes; assay: relative % inhibition of viable gametocyte number; higher = more gametocytocidal; conditions: 0.5 µM; stage: late (IV-V) gametocyte; incubation 72 h
Measured relative % inhibition, listed per entry for reference.

COMPOUND	relative % inhibition / %
COc1ccc(-c2nonc2NC(=O)c2cccc(Cl)c2)cc1OC	-17.2
CCCCCCn1c(=N)n(CC(O)COc2cccc(C)c2)c2ccccc21 (stereo not given)	-12.2
CCOC(=O)C1=C(c2ccccc2)N=c2sc(=Cc3cc(C)n(-c4ccc(F)cc4)c3C)c(=O)n2C1c1cccc(OC)c1OC (stereo not given)	50.5
COc1ccccc1N=C1C(=O)c2ccccc2C(O)=C1N1CCCCC1	-11.2
O=C(O)C1Cc2c([nH]c3ccccc23)C(c2ccc(Cl)cc2Cl)N1 (stereo not given)	6.2
COc1ccc(C2N(C)c3ccccc3N2C)cc1	17.9
CC(=O)c1sc(NC(=O)Nc2ccc(C)cc2C)nc1C	-2.19
CCOc1ccc(CN2CCN(CC(O)COc3ccc(OCC(O)CN4CCN(Cc5ccc(OCC)cc5)CC4)cc3)CC2)cc1 (stereo not given)	-16.8
CCOC(=O)c1cn(CC)c2cc(N(C)CCc3ccc(OC)c(OC)c3)c(F)cc2c1=O	72.3
FC(F)(F)c1cccc(Nc2nc3ccccc3nc2Nc2cccc(C(F)(F)F)c2)c1	105

---

tested on: P. falciparum NF54-pfs16-GFP early (I-III) stage gametocytes; test: relative % inhibition of viable gametocyte number; higher = more gametocytocidal; conditions: 0.5 µM; stage: early (I-III) gametocyte; incubation 72 h

COMPOUND	EXPERIMENTAL TARGET	relative % inhibition / %
CCOC(=O)C1=C(C)N=c2sc(=Cc3ccccc3O)c(=O)n2C1c1ccc(OC)c2ccccc12 (stereo not given)	P. falciparum NF54-pfs16-GFP early (I-III) stage gametocytes	-2.21
Cc1ccc(Cl)cc1N1CCN(CCCNC(=O)C2CCN(c3nc4ccccc4[nH]3)CC2)CC1	P. falciparum NF54-pfs16-GFP early (I-III) stage gametocytes	20
CN1CCN(c2c3c(c(C#N)c4nc5ccccc5n24)CCC3)CC1	P. falciparum NF54-pfs16-GFP early (I-III) stage gametocytes	-35.3
Cc1cc(N2CCN(C3CCCC3)CC2)n2c(nc3ccccc32)c1C#N	P. falciparum NF54-pfs16-GFP early (I-III) stage gametocytes	-10.1
COc1ccc(Nc2nc(NCc3ccccc3)c3ccccc3n2)cc1	P. falciparum NF54-pfs16-GFP early (I-III) stage gametocytes	84.8
